# Target System: Recombinant human his-tagged IGF 1R extracellular domain protein (human) (UniProt P08069)
# Experiment Summary: SPR, captured antibody, pH 7.4
Measure Name: pKd
The value called pKd is obtained by taking minus log10 of the concentration in mol/L.

The cases that follow already have their pKd on record.
{"Binder": "VRDN-03111 (antibody, V domains shown) VH: QVQLVESGGGVVQPGRSLRLSCAASGFTFSDYTMHWVRQAPGKGLEWVAIIWFDGSSKYYVDSVKGRFTISRDNSKNTLYLQMNSLRAEDTAVYYCARELGRRYFDIWGRGTLVTVSS VL: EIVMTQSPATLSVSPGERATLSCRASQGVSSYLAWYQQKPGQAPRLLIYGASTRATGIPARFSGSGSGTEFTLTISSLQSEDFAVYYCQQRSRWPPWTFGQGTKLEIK", "pKd": 8.33}
{"Binder": "VRDN-03038 (antibody, V domains shown) VH: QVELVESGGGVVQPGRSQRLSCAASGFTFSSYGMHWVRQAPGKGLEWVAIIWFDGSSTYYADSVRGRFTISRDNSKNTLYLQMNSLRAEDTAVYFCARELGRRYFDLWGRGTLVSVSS VL: EIVLTQSPATLSLSPGERATLSCHASQSVSSYLAWYQQKPGQAPRLLIYDASKRATGIPARFSGSGSGTDFTLTISSLEPEDFAVYYCQQRSKWPPWTFGQGTKVESK", "pKd": 8.76}
{"Binder": "VRDN-03110 (antibody, V domains shown) VH: QVQLVESGGGVVQPGRSLRLSCAASGFTFSDYTMHWVRQAPGKGLEWVAIIWFDGSSKYYADSVKGRFTISRDNSKNTLYLQMNSLRAEDTAVYYCARELGRRYFDIWGRGTLVTVSS VL: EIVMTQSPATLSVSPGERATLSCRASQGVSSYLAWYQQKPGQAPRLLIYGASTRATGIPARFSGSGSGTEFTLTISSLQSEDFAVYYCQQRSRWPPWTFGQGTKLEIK", "pKd": 8.46}
{"Binder": "VRDN-03138 (antibody, V domains shown) VH: EVQLVESGGGVVQPGRSLRLSCAASGFTFDDYTMHWVRQAPGKGLEWVAVIWYDGSSKYYADSVKGRFTISRDNSKNTLYLQMNSLRAEDTAVYYCARELGRRYFDIWGQGTLVTVSS VL: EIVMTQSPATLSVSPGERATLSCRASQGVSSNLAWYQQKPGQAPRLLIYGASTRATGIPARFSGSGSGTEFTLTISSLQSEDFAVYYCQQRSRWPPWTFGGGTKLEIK", "pKd": 8.06}

Now consider a different binder.
Ask | Can you look up the measured pKd of VRDN-03118 (antibody, V domains shown) VH: EVQLVESGGGVVQPGRSLRLSCAASGFTFSSYSMHWVRQAPGKGLEWVAIIWFDGSSKYYVDSVKSRFTISRDNSKNTLYLQMNSLRAEDTAVYYCARELGRRYFDIWGQGTLVTVSS VL: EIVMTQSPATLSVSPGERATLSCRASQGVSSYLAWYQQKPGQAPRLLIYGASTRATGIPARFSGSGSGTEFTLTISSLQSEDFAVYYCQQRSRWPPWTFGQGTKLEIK for me?
Reply | 8.97
